Subject Of Test: T1, recombinant full-length mouse MASP-3 (mouse)
T1 construct: Entry is with leader; also called mouse full length MASP-3
T1 chain: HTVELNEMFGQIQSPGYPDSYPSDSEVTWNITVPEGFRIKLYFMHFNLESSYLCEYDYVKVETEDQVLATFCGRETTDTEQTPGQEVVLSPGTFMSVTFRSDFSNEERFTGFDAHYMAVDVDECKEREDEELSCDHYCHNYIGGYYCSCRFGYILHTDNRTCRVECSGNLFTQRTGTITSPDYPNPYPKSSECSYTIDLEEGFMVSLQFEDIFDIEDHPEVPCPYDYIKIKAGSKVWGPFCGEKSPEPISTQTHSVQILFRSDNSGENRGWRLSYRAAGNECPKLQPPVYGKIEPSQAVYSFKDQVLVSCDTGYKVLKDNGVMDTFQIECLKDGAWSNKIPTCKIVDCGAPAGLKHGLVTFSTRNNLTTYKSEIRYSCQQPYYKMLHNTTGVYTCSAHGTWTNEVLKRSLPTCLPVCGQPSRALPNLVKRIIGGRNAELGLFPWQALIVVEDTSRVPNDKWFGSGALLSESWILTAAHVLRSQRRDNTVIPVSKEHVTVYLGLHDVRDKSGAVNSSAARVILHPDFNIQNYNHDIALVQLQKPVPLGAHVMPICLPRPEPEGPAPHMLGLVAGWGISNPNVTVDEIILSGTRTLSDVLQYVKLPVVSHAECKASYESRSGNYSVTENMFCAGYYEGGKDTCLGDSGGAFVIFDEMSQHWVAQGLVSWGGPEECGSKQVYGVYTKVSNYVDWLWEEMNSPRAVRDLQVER
Test Name: sandwich ELISA, full-length mouse MASP-3 captured by αM3-259
Recorded pEC50 by entry
When answering, recall that pEC50 equals minus log10 of the concentration in mol/L, and write that number alone.

// solved cases for pEC50 follow
>  <Binder>
MASP-3 mAb 49C11 (mouse-human chimeric IgG4) (antibody, V domains shown) VH: EVQLQQSGPVLVKPGASGKMSCKASGYKFTDYYMIWVKQSHGKSLEWIGVIKIYNGGTSYNQKFKGKATLTVDKSSSTAYMELNSLTSEDSAVYYCARGPSLYDYDPYWYFDVWGTGTTVTVSS VL: DVLMTQTPLSLPVSLGDQASFSCRSSQSLIHSNGNTYLHWYLQKPGQSPKLLIYKVSNRFSGVPDRFSGSGSGTDFTLKISRVEAEDLGVYFCSQSTHVPWTFGGGTKLEIKR

>  <pEC50>
10.19

$$$$
>  <Binder>
MASP-3 mAb 1A10 (mouse-human chimeric IgG4) (antibody, V domains shown, The light chain of 1A10 was not identified) VH: QVQLKQSGPELVKPGASVKLSCKASGYTFTSNDINWVKQRPGQGLEWIGWIYPRDGTTKYNEKFTDKATLTVDVSSSTAFMELHRLTSEDSAVYFCSSVEDSYWGQGTLVTVSS VL: DIVMTQSPSSLAVSAGEKVTMSCKSSQSLLISRTRKNYLSWYQQKPGQSPKLLIYWASTRESGVPDRFTGSGSGTDFTLTISSVQAEDLAVYYCKQSYNLYTFGGGTKLEIKR

>  <pEC50>
9.82

$$$$

Here is another binder to look at.
Give the measured pEC50 of MASP-3 mAb 11B6 (mouse-human chimeric IgG4) (antibody, V domains shown) VH: QVQLKQSGAELVKPGASVKMSCKASGYTFTTYPIEWMKQNHGKSLEWIGNFHPYNGDSKYNEKFKGKATLTVEKSSSTVYLELSRLPSADSAIYYCARRHYAASPWFAHWGQGTLVTVSS VL: DIVMTQSQKFMSTSVGDRVNVTCKASQNVGPTVAWYQQKPGQSPKALIYSASYRYSGVPDRFTGSGSGTDFTLTISNVHSEDLAEYFCQQYNSYPFTFGSGTKLEIKR .
10.18

Origin of measurements: patent US20200270125A1
